# Experimental protocol: in vitro
# Particulars: human, microsomes, pH 7.4
Quantity kind: microsomal CLint

* C[C@]12CC[C@H]3[C@@H](CCC4=CC(=O)CC[C@@]43C)[C@@H]1CC[C@@H]2O [Testosterone, reference compound] | 27.8 µL/min/mg

----------
# Study target: human A1AR (Homo sapiens, UniProt P30542)
# Sequence (P30542 whole entry): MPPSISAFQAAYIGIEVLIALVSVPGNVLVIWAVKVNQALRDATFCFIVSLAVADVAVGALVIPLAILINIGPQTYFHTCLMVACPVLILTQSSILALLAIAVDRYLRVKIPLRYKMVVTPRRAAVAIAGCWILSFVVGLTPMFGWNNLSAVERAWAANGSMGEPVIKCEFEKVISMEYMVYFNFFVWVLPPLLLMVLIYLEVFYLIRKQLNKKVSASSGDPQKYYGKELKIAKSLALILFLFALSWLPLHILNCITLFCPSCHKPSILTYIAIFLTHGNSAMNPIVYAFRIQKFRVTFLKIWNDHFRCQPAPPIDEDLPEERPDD
# Particulars: Lig 2 relative to Lig 1 = 19a
Exp relative binding affinity (ΔΔGbind) values, listed per item
Quantity kind: Exp relative binding affinity (ΔΔGbind) (kcal/mol)

- CNc1nc(-c2ccccc2)c(C#N)c(-c2ccsc2)n1 [19az]: 0.91
- CNc1nc(-c2ccccc2)c(C#N)c(-c2ccco2)n1 [19at]: -0.19
- CNc1nc(-c2ccccc2)c(C#N)c(-c2ccc(O)cc2)n1 [19z]: 0.94
- CNc1nc(-c2ccccc2)c(C#N)c(-c2ccccc2F)n1 [19d]: 0.69
- CNc1nc(-c2ccccc2)c(C#N)c(-c2cccc(F)c2)n1 [19j]: 0.67
- CNc1nc(-c2ccccc2)c(C#N)c(-c2cccc(C#N)c2)n1 [19s]: -0.66
- CNc1nc(-c2ccccc2)c(C#N)c(-c2cccnc2)n1 [19bd]: 0.44
- CNc1nc(-c2ccccc2)c(C#N)c(-c2ccncc2)n1 [19bb]: 1.08
